study-target: RON (human) (Homo sapiens, UniProt Q04912)
Sequence (Q04912 25-1400): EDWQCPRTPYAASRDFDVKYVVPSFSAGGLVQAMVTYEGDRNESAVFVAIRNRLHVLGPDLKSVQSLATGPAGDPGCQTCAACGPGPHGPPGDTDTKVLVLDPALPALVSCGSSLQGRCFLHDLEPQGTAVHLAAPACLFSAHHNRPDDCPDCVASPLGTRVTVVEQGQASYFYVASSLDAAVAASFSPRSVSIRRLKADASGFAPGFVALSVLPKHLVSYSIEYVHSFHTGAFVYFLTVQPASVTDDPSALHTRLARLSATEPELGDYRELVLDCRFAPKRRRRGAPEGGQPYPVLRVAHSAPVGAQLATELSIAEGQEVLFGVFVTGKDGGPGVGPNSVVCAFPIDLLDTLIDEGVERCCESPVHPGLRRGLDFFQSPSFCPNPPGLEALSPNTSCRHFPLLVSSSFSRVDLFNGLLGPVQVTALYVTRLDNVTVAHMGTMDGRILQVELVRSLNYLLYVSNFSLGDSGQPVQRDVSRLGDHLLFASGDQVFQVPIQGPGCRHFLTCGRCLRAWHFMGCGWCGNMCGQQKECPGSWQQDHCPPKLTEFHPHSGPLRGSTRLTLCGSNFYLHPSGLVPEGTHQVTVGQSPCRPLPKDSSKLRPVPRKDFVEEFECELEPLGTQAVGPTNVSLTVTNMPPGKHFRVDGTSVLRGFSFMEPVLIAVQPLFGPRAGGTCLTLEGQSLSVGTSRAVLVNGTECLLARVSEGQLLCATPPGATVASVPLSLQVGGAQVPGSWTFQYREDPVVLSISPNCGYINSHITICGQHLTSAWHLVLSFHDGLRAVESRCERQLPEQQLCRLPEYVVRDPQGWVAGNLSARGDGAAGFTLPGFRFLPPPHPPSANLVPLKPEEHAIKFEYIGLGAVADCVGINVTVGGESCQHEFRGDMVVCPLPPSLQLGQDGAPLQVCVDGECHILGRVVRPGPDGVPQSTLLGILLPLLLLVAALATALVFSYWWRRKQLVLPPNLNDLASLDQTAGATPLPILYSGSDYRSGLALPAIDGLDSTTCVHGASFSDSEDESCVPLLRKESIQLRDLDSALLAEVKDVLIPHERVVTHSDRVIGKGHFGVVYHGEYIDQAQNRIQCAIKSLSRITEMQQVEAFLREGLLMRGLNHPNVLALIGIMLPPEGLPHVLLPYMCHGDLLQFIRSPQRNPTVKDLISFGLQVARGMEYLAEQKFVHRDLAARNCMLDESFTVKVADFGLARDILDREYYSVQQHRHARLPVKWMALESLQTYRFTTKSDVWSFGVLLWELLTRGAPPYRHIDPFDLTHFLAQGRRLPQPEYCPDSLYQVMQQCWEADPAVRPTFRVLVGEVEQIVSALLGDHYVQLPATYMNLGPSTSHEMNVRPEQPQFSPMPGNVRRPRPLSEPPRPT
measure-name: IC50

Use these answered entries as a reference point.
- compound: "Nc1ncc(-c2ccc(O)nc2)cc1-c1cc2c(Cl)ccc(F)c2cn1 [Example 84]"
  study-target: "RON (human) (Homo sapiens, UniProt Q04912)"
  observed: "1000 to 20000 nM"
- compound: "N#Cc1cccc2nc(-c3cc(-c4cnn(C5CCNCC5)c4)cnc3N)sc12 [Example 275]"
  study-target: "RON (human) (Homo sapiens, UniProt Q04912)"
  observed: "100 to 1000 nM"
- compound: "CN1C2CCC1CC(n1cc(-c3cnc(N)c(-c4cc5c(Cl)ccc(F)c5cn4)c3)cn1)C2 (stereo not shown) [Example 64]"
  study-target: "RON (human) (Homo sapiens, UniProt Q04912)"
  observed: "100 to 1000 nM"

Okay, next one:
// lookup IC50 | system=RON (human) (Homo sapiens, UniProt Q04912) | key= Nc1ncc(-c2cnn(C3CCNCC3)c2)cc1-c1nc2cccc(C(F)(F)F)c2s1 [Example 260]
100 to 1000 nM
